Test system: NCI/ADR-RES ovarian
Assay: NCI-60 one-dose screen, 48 h (100 = growth as untreated, 0 = no growth, -100 = all killed)
Conditions: 10 µM unless noted
Procedure: Growth inhibition of the NCI/ADR-RES human […] tumor cell line is measured as a screen for anti-cancer activity. Cells are grown in 96 well plates and exposed to the test compound for 48 hours. Compounds are tested at a single concentration, which is 10^-5 M for most compounds. The reported endpoint is percent growth (GI% or GIPRCNT), where numbers from 0 - 100% represent growth inhibition, and numbers from -100% - 0 represent cell death. For example, a value of 40 represents 60% growth inhibition. […]
This is part of a sample that, as a whole, favours compounds with a hit. Of some 83,000 tested, about 20% had one in any assay.
compounds and their reported growth
Quantity measured: growth (%)

>  <Compound>
CN(C)CCNC(=O)c1ccc(-c2nc3ccc4[nH]ncc4c3c3c2C2CCC3C2)cc1 (centres undefined)

>  <Observed>
77.7

$$$$
>  <Compound>
COc1ccc(/C=C/C(=O)c2cccc(OCCCCOc3cccc(C(=O)/C=C/c4ccc(OC)c(OC)c4)c3)c2)cc1OC

>  <Observed>
78.1

$$$$
>  <Compound>
CC(C)(Sc1cc(C(C)(C)C)c(O)c(C(C)(C)C)c1)Sc1cc(C(C)(C)C)c(OC(=O)CCCC(=O)O)c(C(C)(C)C)c1

>  <Observed>
78.7

$$$$
>  <Compound>
COC(=O)[C@]1(C)CCC[C@]2(C)[C@H]3C[C@H]4C(C(C)C)=C[C@]3(CC[C@H]21)[C@@H]1C(=O)CC[C@H](OCCC#N)[C@@H]14

>  <Observed>
77.8

$$$$
